Tested on: SK-MEL-2 melanoma
Test: NCI-60 one-dose screen, 48 h (100 = growth as untreated, 0 = no growth, -100 = all killed)
Conditions: 10 µM unless noted
The panel holds about 83,000 compounds, 20% with a hit somewhere; the sample as a whole holds those more often.
Decide using growth alone. Strictly below 70%: Fulfilled. Equal to or above 70%: Not fulfilled.

>  <COMPOUND>
COc1cc2cc(NCc3ccncc3)nc(C)c2cc1OC

>  <CLASS LABEL>
Not fulfilled

$$$$
>  <COMPOUND>
COc1ccc(N2CCN(S(=O)(=O)c3oc(-c4ccccc4)nc3C#N)CC2)cc1

>  <CLASS LABEL>
Not fulfilled

$$$$
>  <COMPOUND>
COc1ccc(Oc2nc(Nc3ccc(N4CCOCC4)cc3)ncc2NC(=O)c2cc(OC)cc(OC)c2)cc1

>  <CLASS LABEL>
Not fulfilled

$$$$
>  <COMPOUND>
COc1ccc(C/C(C)=C(/c2ccc(OCCN3CCCC3)cc2)c2ccc(OC(=O)NCc3ccccc3)cc2)cc1

>  <CLASS LABEL>
Not fulfilled

$$$$
>  <COMPOUND>
Cc1[nH]c(C(=O)Nc2nc3ccc(NC(=O)CCN)cc3s2)c(Cl)c1Cl

>  <CLASS LABEL>
Not fulfilled

$$$$
>  <COMPOUND>
O=C(Nc1ccc2ccccc2c1)c1cc2ccccc2cc1O

>  <CLASS LABEL>
Not fulfilled

$$$$
>  <COMPOUND>
CC1(C)C(N)=Nc2cc(OCCCN3Cc4ccc(OCCc5cn(CC(=O)N6CCC(CCN7CCCC7)CC6)nn5)cc4C3)c(OCC3CC3)cc21

>  <CLASS LABEL>
Not fulfilled

$$$$
>  <COMPOUND>
CCOC(=O)C(=CCC(C)C)C(=O)OCC

>  <CLASS LABEL>
Not fulfilled

$$$$
>  <COMPOUND>
Cc1ccc(/C=C2\COc3ccc(O)c(O)c3C2=O)cc1

>  <CLASS LABEL>
Fulfilled

$$$$
>  <COMPOUND>
CN(C)CCCn1c2c(c3ccc(N4CCNCC4)cc3c1=O)C(=O)c1ccccc1-2

>  <CLASS LABEL>
Fulfilled

$$$$
>  <COMPOUND>
COc1ccc(S(=O)(=O)Nc2cc(Sc3cccc4cccnc34)c(O)c3ccccc23)cc1

>  <CLASS LABEL>
Fulfilled

$$$$
>  <COMPOUND>
BrC1=C(Br)C(Br)(Br)C(Br)=C1Br

>  <CLASS LABEL>
Not fulfilled

$$$$
>  <COMPOUND>
Cc1ccc(/C=C(\C#N)c2cc3ccccc3[nH]2)cc1

>  <CLASS LABEL>
Fulfilled

$$$$
>  <COMPOUND>
O=c1ccc2nc(-c3ccccn3)nn(-c3ccccc3)c-2c1

>  <CLASS LABEL>
Not fulfilled

$$$$
>  <COMPOUND>
Cc1cccc(Cc2cnc(NC(=O)CCCOc3ccc(Cl)cc3)s2)c1

>  <CLASS LABEL>
Fulfilled

$$$$
>  <COMPOUND>
Nc1nc2ccccc2c2c(=O)c3ccc(Cl)cc3sc12

>  <CLASS LABEL>
Not fulfilled

$$$$
>  <COMPOUND>
CCCCn1c(C(=O)c2c[nH]c3ccccc23)n[nH]c1=S

>  <CLASS LABEL>
Not fulfilled

$$$$
>  <COMPOUND>
COc1ccc(-c2ccc(-c3ccc(C(=N)N)cn3)s2)cc1Cl

>  <CLASS LABEL>
Fulfilled

$$$$
>  <COMPOUND>
O=C1C(c2c[nH]c3ccccc23)=C(c2coc3cc(Br)ccc23)C(=O)N1O

>  <CLASS LABEL>
Not fulfilled

$$$$
>  <COMPOUND>
O=C1OCC2=C1C(c1cccc(C(F)(F)F)c1)c1cc3c(cc1N2CCO)OCCO3 (stereo unspecified)

>  <CLASS LABEL>
Fulfilled

$$$$

====

Tested on: OVCAR-3 ovarian
Test: NCI-60 one-dose screen, 48 h
Details: 10 µM unless noted
The panel holds about 83,000 compounds, 20% with a hit somewhere; the sample as a whole holds those more often. Activity calls are given as the source filed them. The calls were made as follows: active = growth percent below 10; inactive = the rest.
Possible outcomes: active, inactive

>  <COMPOUND>
CCOC(=O)c1cnn(-c2ccc(S(N)(=O)=O)cc2)c1N

>  <CLASS LABEL>
inactive

$$$$
>  <COMPOUND>
CN(C)C1CCN(C(=O)c2ccc(NC(=O)Nc3ccc(-c4nc(N5CCOCC5)c5cccn5n4)cc3)cc2)CC1

>  <CLASS LABEL>
active

$$$$
>  <COMPOUND>
Fc1ccccc1-c1cnn2cc(-c3ccccc3)cnc12

>  <CLASS LABEL>
inactive

$$$$
>  <COMPOUND>
CC/C(=C(/c1ccc(Cl)cc1)c1ccc(OCCN2CCOCC2)cc1)c1ccccc1

>  <CLASS LABEL>
inactive

$$$$
>  <COMPOUND>
COCCOc1cc2ncnc(N3CCN(S(=O)(=O)c4ccccc4Cl)CC3)c2cc1OCCOC

>  <CLASS LABEL>
inactive

$$$$
>  <COMPOUND>
COC1=CC(c2ccc[nH]2)=N/C1=C\c1[nH]c(C)c(C(=O)Oc2ccccc2)c1C

>  <CLASS LABEL>
active

$$$$
>  <COMPOUND>
COc1ccc(-c2csc(NC(=O)CN3CCN(CCO)CC3)n2)cc1NS(=O)(=O)c1cccc2c(N(C)C)cccc12

>  <CLASS LABEL>
inactive

$$$$
>  <COMPOUND>
Cc1nc2sc(C(=O)Nc3cccc4ccccc34)c(N)c2cc1C(=O)/C=C/c1ccccc1

>  <CLASS LABEL>
active

$$$$
>  <COMPOUND>
Cc1ccc(Cc2cnc(NC(=O)c3cc(C)oc3C)s2)cc1

>  <CLASS LABEL>
inactive

$$$$
>  <COMPOUND>
COc1cccc(NC(=O)c2sc3nc(C)c(C(O)c4ccccc4)cc3c2N)c1 (stereo unspecified)

>  <CLASS LABEL>
active

$$$$
>  <COMPOUND>
CCCN1C(=O)/C(=c2\sc3n(c2=O)NC2C(N=3)N(CC)C(=O)N2CC)c2ccccc21 (stereo unspecified)

>  <CLASS LABEL>
active

$$$$
>  <COMPOUND>
O=C([C@H]1C[C@H]1c1ccc(S(F)(F)(F)(F)F)cc1)N1CCN(c2cc(Cl)ccc2C(F)(F)F)CC1

>  <CLASS LABEL>
inactive

$$$$
>  <COMPOUND>
COc1cc2c(cc1OCCCOC1=C=C=C(c3ccc4c(c3)c3cc(-c5ccc(OCCCOc6cc7c(cc6OC)C(=O)N6CCC[C@H]6C=N7)cc5)ccc3n4S(=O)(=O)c3ccc(C)cc3)C=C1)N=C[C@@H]1CCCN1C2=O

>  <CLASS LABEL>
active

$$$$
>  <COMPOUND>
CCCCCCCCn1ccc2cc(NC(=O)CN3CCN(c4nc(C)cc(N5CCCCC5)n4)CC3)ccc21

>  <CLASS LABEL>
inactive

$$$$
>  <COMPOUND>
CONC1=Nc2cc(NC(N)=NCc3ccccc3)c(N(C)C3CCCCC3)cc2OC1

>  <CLASS LABEL>
inactive

$$$$
>  <COMPOUND>
N#CSc1c[nH]c2ccc(/C=C/C(=O)/C=C(/C=C/c3ccc4[nH]cc(SC#N)c4c3)OB(F)F)cc12

>  <CLASS LABEL>
active

$$$$
>  <COMPOUND>
Cc1ccc(/C=C/c2c(C(=O)/C=C/c3ccccc3)c(C)nc3ccccc23)cc1

>  <CLASS LABEL>
active

$$$$
>  <COMPOUND>
C=C(C)[C@@H]1CC[C@]2(C(=O)N3CCN(C)CC3)CC[C@]3(C)[C@H](CC[C@@H]4[C@@]5(C)CC(CCCNC(C)=O)(CCCNC(C)=O)[C@H](OC(C)=O)C(C)(C)[C@@H]5CC[C@]43C)[C@@H]12

>  <CLASS LABEL>
inactive

$$$$
>  <COMPOUND>
Cn1c(=O)c2c(nc(Nc3cc(=O)[nH]c(=O)[nH]3)n2Cc2ccccc2)n(C)c1=O

>  <CLASS LABEL>
active

$$$$
>  <COMPOUND>
C=C(CN1CC=CCC1)[C@@H]1CC[C@]2(COC(C)=O)CC[C@]3(C)[C@H](CC[C@@H]4[C@@]5(C)CC[C@H](O)C(C)(C)[C@@H]5CC[C@]43C)[C@@H]12

>  <CLASS LABEL>
inactive

$$$$
>  <COMPOUND>
Clc1ccc2c(NCCN3CCN(c4ccnc(N5CCCC5)n4)CC3)ccnc2c1

>  <CLASS LABEL>
inactive

$$$$
>  <COMPOUND>
Cn1cc(-c2nonc2-c2cn(C)c3ccc(Br)cc23)c2ccccc21

>  <CLASS LABEL>
active

$$$$
>  <COMPOUND>
COc1ccc(/C=C(\C#N)c2cc3ccccc3[nH]2)cc1

>  <CLASS LABEL>
inactive

$$$$
>  <COMPOUND>
O=C1/C(=C/c2ccc(F)c(F)c2)CN(C(=O)C(Cl)Cl)C/C1=C\c1ccc(F)c(F)c1

>  <CLASS LABEL>
active

$$$$
>  <COMPOUND>
CCOC(=O)c1nnn(Cc2cc(=O)oc3c2ccc2ccccc23)c1C

>  <CLASS LABEL>
inactive

$$$$
>  <COMPOUND>
COc1ccc(-c2cc(-c3cccnc3)nc3sc4c(Cl)nnnc4c23)cc1OC

>  <CLASS LABEL>
inactive

$$$$
>  <COMPOUND>
CCCCCO/N=C\c1c2c(O)c3c(O)c(C)c4c(c3c1O)C(=O)C(C)(O/C=C\C(OC)C(C)C(OC(C)=O)C(C)C(O)C(C)C(O)C(C)/C=C\C=C(\C)C(=O)N2)O4 (stereo unspecified)

>  <CLASS LABEL>
inactive

$$$$
>  <COMPOUND>
Nc1nc(Nc2cccnc2)sc1C(=O)c1ccccc1F

>  <CLASS LABEL>
active

$$$$
>  <COMPOUND>
O=C(/C=C/c1cccs1)Nc1ncc(Cc2ccc(Cl)c(Cl)c2)s1

>  <CLASS LABEL>
inactive

$$$$
>  <COMPOUND>
N#Cc1ccccc1-c1ccc(Cn2c(-c3cscn3)nc3c(Cl)cccc32)cc1

>  <CLASS LABEL>
inactive

$$$$
>  <COMPOUND>
Clc1ccc2c(c1)N(c1ncnc3ccc(-c4cnc5[nH]ccc5c4)cc13)CC2

>  <CLASS LABEL>
inactive

$$$$
>  <COMPOUND>
CCOC(=O)C(=Cc1ccc(C#N)cc1)C(=O)OCC

>  <CLASS LABEL>
inactive

$$$$
>  <COMPOUND>
COc1cc(C=O)ccc1Oc1ccc([N+](=O)[O-])cc1[N+](=O)[O-]

>  <CLASS LABEL>
inactive

$$$$
>  <COMPOUND>
c1ccc(Cc2cccc[n+]2C(c2ccccc2)c2ccccc2)cc1

>  <CLASS LABEL>
inactive

$$$$
>  <COMPOUND>
CCOC(=O)c1c(-c2ccc(C)cc2)c(C#N)c(=O)n(-c2cccc(C(F)(F)F)c2)c1N

>  <CLASS LABEL>
inactive

$$$$
>  <COMPOUND>
Cc1ccc(/C=C(\C#N)c2cc3ccccc3[nH]2)cc1

>  <CLASS LABEL>
inactive

$$$$
